Source listed as PubChem BioAssay (EPA / NIEHS).

- Assay Protocol: ATG_RORE_CIS: Attagene CIS-FACTORIAL HepG2 Assay for human RAR-related Orphan Receptor Element (RORE) (AID 2282959)
- Test Settings: HepG2 Attagene cis-factorial RORE reporter, mRNA; actives raise or lower the signal
Activity calls are given as the source filed them. How the source made its calls: active means hit-call score of the fitted dose curve at least 0.9, where 1 is the maximum; inactive means score below 0.9.
Respond with a class label; see active, inactive

(Q) I'd appreciate the recorded outcome for `CCCCCCOC(=O)C(C)C` from this test.
(A) inactive

(Q) // param item: `CCCCCCCCN1CCCC1=O` ; yields the recorded call
(A) inactive

(Q) Check the results log: what was the call for `C=C(C)C(=O)OCC(CC)(COC(=O)C(=C)C)COC(=O)C(=C)C` ?
(A) inactive

(Q) Dear colleague, could you share the recorded outcome for CC(=O)C1(C)CC2=C(CCCC2(C)C)CC1C (centres undefined) when you have a moment?
(A) active

(Q) What did this assay record as the result for `CCCCCCCCCCCCS(=O)(=O)Cl` ?
(A) inactive

(Q) Hi, do you know how `Cc1c(C2(c3cc(Br)c(O)c(Br)c3C)OS(=O)(=O)c3ccccc32)cc(Br)c(O)c1Br` came out in this test?
(A) inactive

(Q) Entry `CCCCCCCCCCCCCCCC(=O)OC/C=C(C)/C=C/C=C(C)/C=C/C1=C(C)CCCC1(C)C` : call = ?
(A) inactive

(Q) What is the recorded call for this compound in the test? `CC(C)CCOC(=O)c1ccccc1`
(A) inactive

(Q) What is the recorded call for this compound in the test? `CCCCCC(C=O)=Cc1ccccc1`
(A) inactive

(Q) Kindly provide the recorded test outcome for the following compound: `Nc1ccc(N)c2c1C(=O)c1ccccc1C2=O`
(A) inactive

(Q) Can you look up the reported call for `CC(C)OCCO` for me?
(A) inactive

(Q) Please share the test call associated with OCCCCC(O)CO (centres undefined) .
(A) inactive

(Q) Tell me the recorded outcome of this test for `C=C(C#N)C(=O)OCC` .
(A) inactive

(Q) Please let me know the test result on file for `C=Cc1ccc(C)cc1` .
(A) inactive

(Q) So what was the verdict on `O=CCc1ccccc1` in this test?
(A) inactive

(Q) Which outcome did this test record for the compound `CCN(CCN)c1cccc(C)c1` ?
(A) inactive

(Q) Each compound tested received a call. Report the one for CC(C)=CCCC(C)CCOC=O (centres undefined) .
(A) inactive

(Q) I'd appreciate the recorded outcome for `CC(C)(C)C1=CC(=O)C(C(C)(C)C)=CC1=O` from this test.
(A) inactive

(Q) Any idea what this test logged for `CCCCCCCCCCCCN1CCCCCC1=O` ?
(A) inactive

(Q) Hello, I am checking results. What call was entered for CCCC1O[C@@H]2C[C@H]3[C@@H]4CCC5=CC(=O)C=C[C@]5(C)[C@H]4[C@@H](O)C[C@]3(C)[C@]2(C(=O)CO)O1 (some centres undefined) ?
(A) inactive

(Q) Fill in: this test's call for `OCC#CCO` is ___
(A) inactive

(Q) Fill in: this test's call for `CCCCN(CCCC)C(=O)N(CCCC)CCCC` is ___
(A) inactive

(Q) Hi team, can someone confirm the assay call for `CC/C=C\CC/C=C/CO` ?
(A) inactive

(Q) How did this test come out for `COC(C)(C)CCO` ?
(A) inactive

(Q) Answer briefly: the call reported for `CCCCCCOC(=O)CCC` in this assay.
(A) inactive

(Q) // return assay outcome for `CSCCC=O`
(A) inactive

(Q) Hi, do you know how `CS(=O)(=O)c1ccc(Cl)cc1` came out in this test?
(A) inactive

(Q) Recorded call for CCCCC1CCC(O)CC1 (centres undefined) ?
(A) inactive

(Q) Please let me know the test result on file for `CCOCCOCCOCC` .
(A) inactive

(Q) Just curious, what result did CCC(C)c1cc([N+](=O)[O-])cc([N+](=O)[O-])c1OC(=O)OC(C)C (centres undefined) get here?
(A) inactive

(Q) Field: outcome | Entry: `CC1=NN(c2ccc(S(=O)(=O)O)cc2)C(=O)C1`
(A) inactive

(Q) Per the records of this test, what outcome belongs to `O=C(CC(=O)c1ccccc1)c1ccccc1` ?
(A) active

(Q) // param item: C1=CC2C3C=CC(C3)C2C1 (centres undefined) ; yields the recorded call
(A) inactive

(Q) Please share the test call associated with CCCCCCC(C)Nc1ccc(Nc2ccccc2)cc1 (centres undefined) .
(A) inactive

(Q) # fetch the recorded call for `COCCOCCOCCO` here
(A) inactive

(Q) GET /call?item= `CCCCCCCCCC(=O)OC` returns the recorded outcome of this test.
(A) inactive

(Q) Test call, this compound: `CC(=O)c1c(C)c([N+](=O)[O-])c(C(C)(C)C)c([N+](=O)[O-])c1C`
(A) inactive

(Q) So what was the verdict on `CC(C)(C)c1ccc(C(=O)O)cc1` in this test?
(A) inactive

(Q) How did this test come out for O=C(Nc1ccc([N+](=O)[O-])cc1)Nc1ccc([N+](=O)[O-])cc1 (tested in a mixture with another compound) ?
(A) inactive

(Q) What is the recorded call for this compound in the test? `c1ccc2[nH]cnc2c1`
(A) inactive

(Q) Each compound tested received a call. Report the one for `FC(F)(F)COCC(F)(F)F` .
(A) inactive

(Q) Could you kindly confirm the outcome this assay logged for `ClC(c1ccccc1)(c1ccccc1)c1ccccc1` ?
(A) inactive

(Q) What classification did `Cc1ncc([N+](=O)[O-])n1CCO` end up with in this test?
(A) inactive

(Q) In this assay, the call recorded for `Oc1ccc2cc(SSc3ccc4cc(O)ccc4c3)ccc2c1` was what?
(A) active

(Q) Look up the recorded call for `CCCC[P+](CCCC)(CCCC)CCCC` in this test.
(A) inactive

(Q) Could you kindly confirm the outcome this assay logged for C#CC(C)N(C)C(=O)Nc1ccc(Cl)cc1 (centres undefined) ?
(A) inactive

(Q) How was CCCCC(CC)COC(=O)c1ccc(O)cc1 (centres undefined) classified in this test?
(A) inactive

(Q) Can you look up the reported call for `OCc1cccc(Oc2ccccc2)c1` for me?
(A) inactive

(Q) Record request — test call for O=C(c1ccccc1)C(O)c1ccccc1 (centres undefined)
(A) inactive

---

- Assay Protocol: CEETOX_H295R_DOC: CeeTox H295R High-throughput Steroidogenesis Assay for DOC (AID 2283439)
- Test Settings: actives raise or lower the signal
Calls of active or inactive are those of the source. The calls were made as follows: active = hit-call score of the fitted dose curve at least 0.9, where 1 is the maximum; inactive = score below 0.9.
Pick from T (active), F (inactive) when you respond.

(Q) Name the outcome recorded for `CCOC(=O)[C@@H](C)Oc1ccc(Oc2nc3ccc(Cl)cc3o2)cc1` in the assay.
(A) T

(Q) Could you please tell me the result logged for `COc1ccc(CCN2CCC(Nc3nc4ccccc4n3Cc3ccc(F)cc3)CC2)cc1` in this assay?
(A) T

(Q) GET /call?item= `BrCc1cccc(Oc2ccccc2)c1` returns the recorded outcome of this test.
(A) F

---

- Target Or System: Cellular tumor antigen p53 (Homo sapiens)
- Assay Protocol: TOX21_p53_BLA_p4_ratio: Tox21 HCT-116 p53 Agonism Beta-lactamase Assay, Ratio, Phase 4 (AID 2283601)
- Experimental: TOX21_p53_BLA_p4 is a cell-based, single-readout assay that uses HCT116, a human intestinal cell line, […] in a 1536-well plate.TOX21_p53_BLA_p4_ratio is an assay readout measuring reporter gene via receptor activity and designed using inducible reporter (beta lactamase induction) detected with GAL4 b-lactamase reporter gene. […] This assay endpoint, TOX21_p53_BLA_p4_ratio, was analyzed in the positive analysis fitting direction relative to DMSO as the negative control and baseline of activity. […]
Results filed as inconclusive are left out. The source made the active and inactive calls. The calls were made as follows: active = hit-call score of the fitted dose curve at least 0.9, where 1 is the maximum; inconclusive = response in the unintended direction; inactive = score below 0.9.
Bench note: report the call from active, inactive

(Q) State the result this test recorded for `CCCC(=O)OCCc1ccccc1` .
(A) inactive

(Q) Each compound tested received a call. Report the one for OCC(O)c1ccccc1 (stereo unspecified) .
(A) inactive

(Q) Please state the recorded outcome for this compound: `CC(C)CCCCCCc1ccc(OCCOCCO)cc1`
(A) inactive

(Q) Tell me the recorded outcome of this test for `Cc1ccc(S(=O)(=O)Oc2ccc(N=Nc3ccc(-c4ccc(N=Nc5c(O)ccc6cc(S(=O)(=O)O)cc(S(=O)(=O)O)c56)c(C)c4)cc3C)cc2)cc1` .
(A) inactive

(Q) Hey, what did the test say about `O=C(O)c1cc(C(=O)O)cc([N+](=O)[O-])c1` ?
(A) inactive

(Q) Just curious, what result did `O=CCc1ccccc1` get here?
(A) inactive

(Q) Status in this test for `Cc1[nH]c(=O)c(C#N)cc1-c1ccncc1` ?
(A) inactive

(Q) Entry `CC[N+](C)(CC)CC` : call = ?
(A) inactive

(Q) Answer briefly: the call reported for `COc1ccc(N)c([N+](=O)[O-])c1` in this assay.
(A) inactive

(Q) Please let me know the test result on file for `Cc1cc(CCC(=O)OCCOCCOCCOC(=O)CCc2cc(C)c(O)c(C(C)(C)C)c2)cc(C(C)(C)C)c1O` .
(A) inactive

(Q) Please share the test call associated with `c1ccc(Oc2ccccc2)cc1` .
(A) inactive

(Q) Assay outcome for `COC(=O)c1ccc(OC)cc1` : what was it?
(A) inactive

(Q) Hi team, can someone confirm the assay call for C1=CC2C3C=CC(C3)C2C1 (stereo unspecified) ?
(A) inactive

(Q) Assay outcome for `CCCCCc1ccco1` : what was it?
(A) inactive

(Q) Dear all, I need the recorded test outcome for `C[C@H]1C[C@@H](O)CC(C)(C)C1` , thank you.
(A) inactive

(Q) Field: outcome | Entry: `[Cl][Au]([Cl])[Cl]`
(A) active

(Q) What call does the record list for `COc1ccccc1[N+](=O)[O-]` ?
(A) inactive

(Q) Please share the test call associated with C#CC(C)N(C)C(=O)Nc1ccc(Cl)cc1 (stereo unspecified) .
(A) inactive

(Q) Recorded test call requested for `CC(=O)OCCCc1ccccc1`
(A) inactive

(Q) Dear all, I need the recorded test outcome for `N#Cc1cscn1` , thank you.
(A) inactive

(Q) # outcome recorded in this test, key = CCCC(=O)C(CC)Sc1ccoc1C (stereo unspecified)
(A) inactive

(Q) Field: outcome | Entry: `COc1ccccc1N=Nc1c(S(=O)(=O)O)cc2cc(S(=O)(=O)O)cc(NC(C)=O)c2c1O`
(A) inactive

(Q) Which outcome did this test record for the compound CCC(Cl)C(Cl)C(Cl)CC(Cl)C(Cl)C(C)Cl (stereo unspecified) ?
(A) inactive

(Q) Recorded test call requested for `O=C(O)CNc1ccccc1`
(A) inactive

(Q) Which outcome did this test record for the compound `Cc1c(C2(c3cc(Br)c(O)c(Br)c3C)OS(=O)(=O)c3ccccc32)cc(Br)c(O)c1Br` ?
(A) inactive

(Q) For `CCOC(=O)C(C#N)=C(c1ccccc1)c1ccccc1` , which call appears in the assay record?
(A) inactive

(Q) # outcome recorded in this test, key = `Cc1ncc([N+](=O)[O-])n1CCO`
(A) inactive

(Q) Answer briefly: the call reported for `CN1CCOCC1` in this assay.
(A) inactive

(Q) Short answer needed: outcome of this test for `O=C(CC(=O)c1ccccc1)c1ccccc1` ?
(A) inactive

(Q) Any idea what this test logged for `CCc1ncc(C)[nH]1` ?
(A) inactive

(Q) What is the recorded call for this compound in the test? `Nc1ccccc1[N+](=O)[O-]`
(A) inactive

(Q) Which outcome did this test record for the compound `O=C1OC[C@H](Cc2cccc(O)c2)[C@H]1Cc1cccc(O)c1` ?
(A) inactive

(Q) Can you look up the reported call for CCCC(C)C(O)CC (stereo unspecified) for me?
(A) inactive

(Q) What was the test verdict on `O=C1c2ccccc2C(=O)c2c(O)ccc(O)c21` ?
(A) inactive

(Q) Dear colleague, could you share the recorded outcome for `CCOc1ccccc1O` when you have a moment?
(A) inactive

(Q) So what was the verdict on CC(C)=CCCC(C)CCOC=O (stereo unspecified) in this test?
(A) inactive

(Q) Recorded test outcome, item `O=C(Nc1ccc2c(O)c(N=Nc3ccc(N=Nc4ccc(S(=O)(=O)O)cc4)cc3)c(S(=O)(=O)O)cc2c1)c1ccccc1`
(A) inactive

(Q) Outcome? `Cc1ccc(S(N)(=O)=O)cc1`
(A) inactive

(Q) Would you mind telling me which call this test gave `c1ccc(CCc2ccccc2)cc1` ?
(A) inactive

(Q) For CCC(C)c1cc([N+](=O)[O-])cc([N+](=O)[O-])c1OC(=O)OC(C)C (stereo unspecified) , which call appears in the assay record?
(A) inactive

(Q) # lookup: test call for `Cc1ccc(N)c(S(=O)(=O)O)c1`
(A) inactive

(Q) GET /call?item= CCCC1O[C@@H]2C[C@H]3[C@@H]4CCC5=CC(=O)C=C[C@]5(C)[C@H]4[C@@H](O)C[C@]3(C)[C@]2(C(=O)CO)O1 (stereo partly specified) returns the recorded outcome of this test.
(A) inactive

(Q) Recorded call for `CCCCN(CCCC)C(=O)N(CCCC)CCCC` ?
(A) inactive

(Q) Returns: the outcome recorded for `CCC1(c2ccccc2)C(=O)NCNC1=O` in this assay.
(A) inactive

(Q) Check the results log: what was the call for `C[C@@H]1CCN(C(=O)[C@H](CCCN=C(N)N)NS(=O)(=O)c2cccc3c2NC[C@H](C)C3)[C@@H](C(=O)O)C1` ?
(A) inactive

(Q) How did this test come out for Cc1c(OCC(F)(F)F)ccnc1CS(=O)c1nc2ccccc2[nH]1 (stereo unspecified) ?
(A) inactive
